system: RIP1-Tag2 angiogenic islets and tumors; assay: Localization of fluorescein-conjugated peptides after intravenous injection; format: in vivo, mouse; conditions: i.v. into 8-week or 12-week old RIP-Tag2 mice
quantityName: homing selectivity of purified peptides

INSERT INTO results (substance, assaysystem, val) VALUES
  ('CKAAKNK', 'RIP1-Tag2 angiogenic islets and tumors', 'malignant solid tumors'),
  ('CKGAKAR', 'RIP1-Tag2 angiogenic islets and tumors', 'malignant solid tumors');

----------
test system: bTC3-derived subcutaneous transplant tumor in a nude mouse; experiment: Homing to bTC3 subcutaneous tumor; format: in vivo; conditions: FIG. 4A
quantityName: homing to TC3 tumor

Some solved cases for reference:
INSERT INTO measurements (substance, assaysystem, quantityname, val) VALUES
  ('CRGRRST [linear homing peptide]', 'bTC3-derived subcutaneous transplant tumor in a nude mouse', 'homing to TC3 tumor', 'did not home appreciably'),
  ('CKAAKNK', 'bTC3-derived subcutaneous transplant tumor in a nude mouse', 'homing to TC3 tumor', 'did not home appreciably'),
  ('VGVGEWSV', 'bTC3-derived subcutaneous transplant tumor in a nude mouse', 'homing to TC3 tumor', 'homed'),
  ('FRVGVADV [linear homing peptide; homes to both types of lesion]', 'bTC3-derived subcutaneous transplant tumor in a nude mouse', 'homing to TC3 tumor', 'did not home appreciably'),
  ('CKGAKAR', 'bTC3-derived subcutaneous transplant tumor in a nude mouse', 'homing to TC3 tumor', 'did not home appreciably');

Please find the next substance below.
input: Quick check: homing to TC3 tumor of CRSRKG [linear homing peptide] ?
output: homed
